# Test system: Rodentolepis nana
# Protocol description: Anthelmintic activity against Hymenolepis nana infected in mouse assessed as reduction in worm burden at 100 mg/kg administered bid for 3 days relative to control
# Format: functional
Calls of active or inactive are those of the source. No cut-off for these calls is given here.
Recorded metric: Activity

Some molecules with recorded Activity:
COc1ccc(CNc2cccc(Nc3cc(C)nc4ccc5nc[nH]c5c34)c2)cc1    inactive
Cc1cc(Nc2ccc(N3CCN(Cc4ccccc4)CC3)c(Cl)c2)c2c(ccc3nc[nH]c32)n1    100%
Cc1cc(Nc2ccc(Cl)c(C(F)(F)F)c2)c2c(ccc3nc[nH]c32)n1    84%
Cc1cc(Nc2ccc(OCC(C)C)c(OCC(C)C)c2)c2c(ccc3nc[nH]c32)n1    100%

Alright, here's another molecule for you.
Bench note, Rodentolepis nana: "CCCCc1ccc(Nc2cc(C)nc3ccc4nc[nH]c4c23)cc1Cl" , Activity reads 100%

* * *

Catalogue of Activity values
# System: Rodentolepis nana
# Protocol description: Anthelmintic activity against Hymenolepis nana infected in mouse assessed as reduction in worm burden at 100 mg/kg administered bid for 3 days relative to control
# Assay type: functional
# Design: scale not given: the % may be the effect or the level left

Activity measured on "Cc1cc(Nc2ccc(Oc3ccccc3)cc2)c2c(ccc3nc[nH]c32)n1" = 100%

Lookup result for "CSc1ccc(Nc2cc(C)nc3ccc4nc[nH]c4c23)cc1" ; measured Activity: 100%

Entry "CCc1ccc(Nc2cc(C)nc3ccc4nc[nH]c4c23)cc1Cl" — recorded Activity = 100%

Item: "Cc1cc(Nc2ccc(N3CCCCC3)cc2)c2c(ccc3nc[nH]c32)n1" | Activity: 64%

The compound listed as "COc1ccc(Nc2cc(C)nc3ccc4nc(-c5ccccc5)[nH]c4c23)cc1" has a reported Activity of 94%

Activity reported for this compound "CCc1cc(Nc2ccc(OC)cc2)c2c(ccc3nc[nH]c32)n1" : 46%

Measured Activity, "COc1cc(OC)c(Nc2cc(C)nc3ccc4nc[nH]c4c23)cc1Cl" : 85%

// "Cc1cc(Nc2cccc(Cl)c2C)c2c(ccc3nc[nH]c32)n1" : Activity value = 100%

Query "COc1ccc(Nc2cc(C)nc3ccc4nc[nH]c4c23)cc1" yields Activity of 64%

In plain terms, "CCOc1ccc(Nc2cc(C)nc3ccc4nc[nH]c4c23)cc1" has a documented Activity of 100%

* * *

# Tested on: Rodentolepis nana
# Protocol description: Anthelmintic activity against Hymenolepis nana infected in mouse assessed as reduction in worm burden at 100 mg/kg administered bid for 3 days relative to control
# Assay type: functional
# Design: scale not given: the % may be the effect or the level left
The source made the active and inactive calls. No cut-off for these calls is given here.
Recorded metric: Activity

Here's what some known entries look like.
Cc1cc(Nc2ccc3ccccc3c2)c2c(ccc3nc[nH]c32)n1    72%
CCOc1cc(Nc2cc(C)nc3ccc4nc[nH]c4c23)c(OCC)cc1Cl    100%
CSc1cccc(Nc2cc(C)nc3ccc4nc[nH]c4c23)c1    100%
CCCCCOc1ccc(Nc2cc(C)nc3ccc4nc[nH]c4c23)cc1OCCCCC    63%
Cc1cc(Nc2ccc(N(C)C)c(Cl)c2)c2c(ccc3nc[nH]c32)n1    71%

Let me check: "Cc1cc(Nc2ccc(N(C)C)cc2)c2c(ccc3nc[nH]c32)n1" , system Rodentolepis nana, measured Activity is 100%

Field Activity (system: Rodentolepis nana) for entry "Cc1cc(Nc2ccccc2)c2c(ccc3nc[nH]c32)n1" = 40%

Rodentolepis nana assay, compound "Cc1cc(Nc2ccc3c(c2)OCO3)c2c(ccc3nc[nH]c32)n1" , recorded Activity = inactive

Tested system Rodentolepis nana; Activity recorded for "Cc1cc(Nc2ccc(Cl)c(Cl)c2)c2c(ccc3nc[nH]c32)n1" was 65%

Given the compound "COc1ccc(Nc2cc(C)nc3ccc4nc[nH]c4c23)cc1OC" and test system Rodentolepis nana, the measured Activity is 73%

// compound "Cc1cc(Nc2ccc(N3CCN(C)CC3)cc2)c2c(ccc3nc[nH]c32)n1" , assay Rodentolepis nana, Activity value: inactive

Values were extracted from ChEMBL document CHEMBL3244292.
